src = PubChem BioAssay AID210

System: CD2F1 mice, ip Colon 26 adenocarcinoma, median survival T/C
assay_protocol: NCI In Vivo Anticancer Drug Screen. Data for tumor model Colon 26 Adenocarcinoma (intraperitoneal) in CD2F1 (CDF1) mice
measurement_setup: endpoint: median survival time; dose: 200.0 mg/kg/injection; schedule: Q04DX003 (ip); vehicle: saline
Inconclusive results and toxic doses are left out. The calls were made as follows: active = survival T/C of 150% or more; inactive = T/C below 125% in these data.
Select the correct class. Options are 1 = active, 0 = inactive and nothing else.

Ask | Fill in: this test's call for COC(OC(CO)C(O)S(=O)(=O)O)C(O)S(=O)(=O)O (stereo not given) is ___
Reply | 0

Ask | Fill in: this test's call for `COc1cc(C[C@H]2c3cc(OC)c(OC)cc3CCN2C)c(Oc2cc3c(cc2OC)-c2c(OC)c(OC)cc4c2[C@H](C3)N(C)CC4)cc1OC` is ___
Reply | 0

Ask | Fill in: this test's call for `N=C(N)SCc1c2ccccc2c(CSC(=N)N)c2ccccc12` is ___
Reply | 1

Ask | Fill in: this test's call for O=C1C=CN(C2OC(CO)C(O)C2O)C(=O)C1 (stereo not given) is ___
Reply | 0

Ask | Fill in: this test's call for O=C1NC(O)CCN1C1OC(CO)C(O)C1O (stereo not given) is ___
Reply | 0

* * *

System: CD2F1 mice, ip Colon 26 adenocarcinoma, median survival T/C
assay_protocol: NCI In Vivo Anticancer Drug Screen. Data for tumor model Colon 26 Adenocarcinoma (intraperitoneal) in CD2F1 (CDF1) mice
measurement_setup: endpoint: median survival time; dose: 12.5 mg/kg/injection; schedule: Q04DX003 (ip); vehicle: saline with Tween-80
Toxic doses and inconclusive results are not listed. How the source made its calls: active means survival T/C of 150% or more; inactive means T/C below 125% in these data.
Select the correct class. Options are active, inactive and nothing else.

Ask | Fill in: this test's call for `Nc1ccc(Cl)cc1N` is ___
Reply | inactive

Ask | Fill in: this test's call for `CC[N+](CC)(CC)CC` is ___
Reply | active

Ask | Fill in: this test's call for `Cc1cc(C)c(-c2cc(O)c(C)cc2O)c(C)c1` is ___
Reply | inactive

Ask | Fill in: this test's call for `CC(=O)Nc1ccc(O)c(O)c1` is ___
Reply | inactive

Ask | Fill in: this test's call for `Cc1ccc(S(=O)(=O)N/N=C/C(=O)O)cc1` is ___
Reply | active

Ask | Fill in: this test's call for `C=CC(=O)N1CN(C(=O)C=C)CN(C(=O)C=C)C1` is ___
Reply | inactive

Ask | Fill in: this test's call for `CCC[P+](c1ccccc1)(c1ccccc1)c1ccccc1` is ___
Reply | inactive

Ask | Fill in: this test's call for `COc1ccc2cc1Oc1ccc(cc1)C[C@H]1c3cc(c(OC)cc3CCN1C)Oc1c(OC)c(OC)cc3c1[C@H](C2)N(C)CC3` is ___
Reply | inactive

Ask | Fill in: this test's call for `CO[C@H]1C[C@@H]2CC[C@@H](C)[C@@](O)(O2)C(=O)C(=O)N2CCCC[C@H]2C(=O)O[C@H]([C@H](C)C[C@@H]2CC[C@@H](O)[C@H](OC)C2)CC(=O)[C@H](C)C=C(C)[C@@H](O)[C@@H](OC)C(=O)[C@H](C)C[C@H](C)/C=C/C=C/C=C1C` is ___
Reply | inactive

* * *

Test system: CD2F1 mice, ip Colon 26 adenocarcinoma, median survival T/C
assay_protocol: NCI In Vivo Anticancer Drug Screen. Data for tumor model Colon 26 Adenocarcinoma (intraperitoneal) in CD2F1 (CDF1) mice
measurement_setup: endpoint: median survival time; dose: 100.0 mg/kg/injection; schedule: Q04DX002 (ip); vehicle: Klucel (hydroxypropylcellulose) (HPC); higher = longer survival
Toxic doses and inconclusive results are not listed.
Please provide measured T/C for the entries that follow.

Field T/C (entry `CC(C)CCC[C@@H](C)[C@H]1CC[C@H]2[C@@H]3CC=C4C[C@@H](OC(=O)Cc5ccc(N(CCCl)CCCl)cc5)CC[C@]4(C)[C@H]3CC[C@]12C` ) reads 101 % of control

Field T/C (entry CC1CC2OC2/C=C\C=C\C(=O)Cc2c(Cl)c(O)cc(O)c2C(=O)O1 (configuration not stated) ) reads 99 % of control

Field T/C (entry `CC[C@H](CC[C@@H](C)[C@H]1CC[C@H]2[C@@H]3CC=C4C[C@@H](OC(C)=O)CC[C@]4(C)[C@H]3CC[C@]12C)C(C)C` ) reads 102 % of control

Field T/C (entry COC1=CC(=O)N(C(=O)C2CSC(C(CO)NC(=O)c3csc(/C=N/O)n3)=N2)C1 (configuration not stated) ) reads 105 % of control

Field T/C (entry `C[C@]12CC[C@@H]3c4ccc(O)cc4CC[C@H]3[C@@H]1CC[C@@H]2O` ) reads 100 % of control

Field T/C (entry `Cc1c2ccncc2c(C)c2c1[nH]c1ccccc12` ) reads 170 % of control

Field T/C (entry NC(=O)c1ncn(C2OC(CO)C(O)C2O)c1O (configuration not stated) ) reads 98 % of control

* * *

System: CD2F1 mice, ip Colon 26 adenocarcinoma, median survival T/C
assay_protocol: NCI In Vivo Anticancer Drug Screen. Data for tumor model Colon 26 Adenocarcinoma (intraperitoneal) in CD2F1 (CDF1) mice
measurement_setup: endpoint: median survival time; dose: 2.0 mg/kg/injection; schedule: Q04DX003 (ip); vehicle: saline; higher = longer survival
Toxic doses and inconclusive results are not listed.
observation_type: T/C

Field T/C (entry COc1cccc2c1C(=O)c1c(O)c3c(c(O)c1C2=O)C[C@@](O)(C(C)=O)C[C@@H]3OC1CC(N)C(O)C(C)O1 (stereo partly drawn) ) reads 158 % of control

Field T/C (entry COc1ccc(CC2C(=O)NC(C)C(=O)N(C)C3Cc4ccc(cc4)Oc4cc(ccc4O)CC(C(=O)NC(C)C(=O)NC(C)C(=O)N2C)N(C)C3=O)cc1 (stereo not drawn) ) reads 87 % of control

Field T/C (entry COc1ccc(CC2C(=O)NC(C)C(=O)N(C)C3C(=O)N(C)C(Cc4ccc(O)c(c4)Oc4ccc(cc4)C3O)C(=O)NC(C)C(=O)NC(C)C(=O)N2C)cc1 (stereo not drawn) (tested in a mixture with another compound) ) reads 99 % of control

Field T/C (entry `N[C@H](C(=O)O)[C@@H]1CC(Cl)=NO1` ) reads 105 % of control

Field T/C (entry CO[C@H](C(=O)[C@@H](O)[C@@H](C)O)[C@@H]1Cc2cc3cc(OC4CC(OC5CC(O)C(O)C(C)O5)C(O)C(C)O4)c(C)c(O)c3c(O)c2C(=O)[C@H]1OC1CC(OC2CC(OC3CC(C)(O)C(O)C(C)O3)C(O)C(C)O2)C(O)C(C)O1 (stereo partly drawn) ) reads 100 % of control

Field T/C (entry CC1CC(C)CC(C)C(O)/C(C#N)=C/C=C/CC(C2CCCC2C(=O)O)OC(=O)CC(O)C(C)C1 (stereo not drawn) ) reads 100 % of control

Field T/C (entry COc1ccc(CC2C(=O)NC(C)C(=O)N(C)C3C(=O)N(C)C(Cc4ccc(O)c(c4)Oc4ccc(cc4)C3O)C(=O)NC(C)C(=O)NC(C)C(=O)N2C)cc1 (stereo not drawn) ) reads 92 % of control

Field T/C (entry COc1cccc2c1C(=O)c1c(O)c3c(c(O)c1C2=O)C[C@@](O)(C(=O)CO)C[C@@H]3OC1CC(N)C(O)C(C)O1 (stereo partly drawn) ) reads 278 % of control

* * *

Tested on: CD2F1 mice, ip Colon 26 adenocarcinoma, median survival T/C
assay_protocol: NCI In Vivo Anticancer Drug Screen. Data for tumor model Colon 26 Adenocarcinoma (intraperitoneal) in CD2F1 (CDF1) mice
measurement_setup: endpoint: median survival time; dose: 100.0 mg/kg/injection; schedule: Q04DX003 (ip); vehicle: saline with Tween-80
Inconclusive results and toxic doses are left out. How the source made its calls: active means survival T/C of 150% or more; inactive means T/C below 125% in these data.
Select the correct class. Options are active, inactive and nothing else.

Ask | Fill in: this test's call for `Cc1ccc(S(=O)(=O)N/N=C/C(=O)O)cc1` is ___
Reply | active

Ask | Fill in: this test's call for `COc1ccc2cc1Oc1ccc(cc1)C[C@H]1c3cc(c(OC)cc3CCN1C)Oc1c(OC)c(OC)cc3c1[C@H](C2)N(C)CC3` is ___
Reply | inactive

Ask | Fill in: this test's call for `Nc1ccc(Cl)cc1N` is ___
Reply | inactive

Ask | Fill in: this test's call for `Cc1ccc(NC(=O)Oc2ccc(Br)cc2Br)c([N+](=O)[O-])c1` is ___
Reply | inactive

Ask | Fill in: this test's call for `C=CCNc1ccc(C)cc1` is ___
Reply | inactive

Ask | Fill in: this test's call for `O=C(N/N=C\c1cc(Br)cc(Br)c1O)N/N=C/c1cc(Br)cc(Br)c1O` is ___
Reply | inactive

Ask | Fill in: this test's call for `Cc1cc(C)c(-c2cc(O)c(C)cc2O)c(C)c1` is ___
Reply | inactive

Ask | Fill in: this test's call for CCSC(=O)N1c2ccc(OC)cc2C=CC1C#N (configuration not stated) is ___
Reply | inactive

Ask | Fill in: this test's call for `CC(=O)Nc1ccc(O)c(O)c1` is ___
Reply | inactive

Ask | Fill in: this test's call for Clc1ccc(C(c2ccccc2Cl)C(Cl)Cl)cc1 (configuration not stated) is ___
Reply | inactive

Ask | Fill in: this test's call for CCOC(C)C(/C=N/NC(N)=S)=NNC(N)=S (configuration not stated) is ___
Reply | inactive

Ask | Fill in: this test's call for `CO[C@H]1C[C@@H]2CC[C@@H](C)[C@@](O)(O2)C(=O)C(=O)N2CCCC[C@H]2C(=O)O[C@H]([C@H](C)C[C@@H]2CC[C@@H](O)[C@H](OC)C2)CC(=O)[C@H](C)C=C(C)[C@@H](O)[C@@H](OC)C(=O)[C@H](C)C[C@H](C)/C=C/C=C/C=C1C` is ___
Reply | inactive

Ask | Fill in: this test's call for OC(CBr)C(O)C(O)C(O)CBr (configuration not stated) is ___
Reply | inactive

Ask | Fill in: this test's call for `CC/C(=C(/CC)c1ccc(O)cc1)c1ccc(O)cc1` is ___
Reply | inactive

Ask | Fill in: this test's call for `Cc1c2ccncc2c(C)c2c1[nH]c1ccccc12` is ___
Reply | active

Ask | Fill in: this test's call for `O=Cc1ccc(C(Cl)(Cl)Cl)cc1` is ___
Reply | inactive

Ask | Fill in: this test's call for `CC(=O)O[C@@H]1[C@@H](O)C2=C3[C@]4(C)[C@@H]1C(C)(C)C(=O)C[C@@H]4[C@]3(O)[C@H](OC(C)=O)[C@@]1(C[C@@H]1C)C2=O` is ___
Reply | inactive
